Reported TGI is given for each of the following compounds.
# System: T-47D breast
# Experimental protocol: NCI tumour cell line growth inhibition, 48 h

Compound	Test target	Unit descriptor	Op	TGI
O=C(O)CC[P+](c1ccccc1)(c1ccccc1)c1ccccc1	T-47D breast	µM	>	100
Cc1ccc(NC2=NCCO2)c2c1CCC2	T-47D breast	µM	>	100
NCCCCC1NC(=O)C(CC(=O)O)NC(=O)CNC(=O)C(CCCN=C(N)N)NC(=O)C(N)CSSCC(C(=O)O)NC(=O)C(CC(=O)O)NC(=O)C2CCCN2C(=O)CNC1=O (configuration not stated)	T-47D breast	µM	>	100
O=[N+]([O-])c1nccn1CC(O)CN1CCCCC1 (configuration not stated)	T-47D breast	µM	>	100
Oc1c(Cl)cc(Cl)c2ccc(Cn3cc(-c4cc(C(F)(F)F)cc(C(F)(F)F)c4)nn3)nc12	T-47D breast	µM	=	5.55
Nc1cccc(S(=O)(=O)Nc2nnc(S(N)(=O)=O)s2)c1	T-47D breast	µM	>	100
CCn1c(-c2cc3c([nH]c4ccccc43)c(-c3cccc(O)c3)n2)n[nH]c1=S	T-47D breast	µM	=	9.12
O=C(Nc1ccc(F)cc1F)c1cc(Cl)ccc1O	T-47D breast	µM	=	5.5
Cc1nc2n(c1/C=C1/C(=O)Nc3ccccc31)CCS2	T-47D breast	µM	>	100
OCC(CCc1ccccc1I)C1=CCC2(CC1)OCCO2 (configuration not stated)	T-47D breast	µM	=	42.3
C=C1CC2CC[C@@]34CC5O[C@@H]6C(O[C@H]7CC[C@H](CC(=O)OC8C(C)C9OC%10C[C@]%11(C[C@@H]%12O[C@]%13(CC(C)[C@@H]%14O[C@H](C(O)CC(O)CO)C[C@@H]%14O%13)CC(C)[C@@H]%12O%11)OC%10CC9O[C@H]8C[C@H]8OC(CC[C@@H]1O2)C[C@@H](C)C8=C)OC7[C@@H]6O3)[C@H]5O4 (some centres not stated)	T-47D breast	µM	=	5.32
O=C(Nc1ccc(-n2ccc3c(NC(=O)c4ccccc4)ncnc32)cc1)c1cccc(C(F)(F)F)c1	T-47D breast	µM	=	30.6

----------
# Test system: SF-539 CNS
# Experimental protocol: NCI tumour cell line growth inhibition, 48 h; in the data active = GI50 below about 0.43 µM; inactive = the rest
Labels: active, inactive

> print(dat)
                                    compound  classification
 1  CCCCCCCCOC(=O)c1c(C)[nH]c(/C=C2\N=C(c3ccc[nH]3)C=C2OC)c1C          active
 2  NS(=O)(=O)c1ccc(N=Nc2c(O)[nH]c3ccc(C(=O)NCc4ccncc4)cc23)cc1        inactive
 3  CNNC(=N\S(=O)(=O)c1cc(C)c(Cl)cc1SCc1ccccc1)/N=C/c1ccc([N+](=O)[O-])s1        inactive
 4  [O-]c1ccccc1C=Nc1ccc2c(c1)CCC2.[O-]c1ccccc1C=Nc1ccc2c(c1)CCC2.[O]=[U+2]=[O]        inactive
 5  N#C/C(=C\c1ccc([N+](=O)[O-])s1)c1nc2cc(Cl)ccc2s1        inactive
 6  O=C(/C=C/c1ccc(C(F)(F)F)cc1)Nc1ccc(C=C2c3ccccc3C(=O)c3ccccc32)cc1        inactive
 7  CN(Cc1ccc(C(F)(F)F)cc1)CC(O)C(=O)Nc1ccc(Cl)cc1 (stereo unspecified)        inactive
 8  O=C1C2=C(C(=O)c3cnccc31)C1C=CC2CC1 (stereo unspecified)        inactive
 9           O=C(Nc1ccc(F)cc1F)c1cc(Cl)ccc1O        inactive
10  CC(C)c1nc(N(C)S(C)(=O)=O)nc(-c2ccc(F)cc2)c1/C=C/[C@@H](O)C[C@@H](O)CC(=O)O        inactive
11  CCC(C)Oc1nc2c(c(=O)n(C)c(=O)n2C)n1C (stereo unspecified)        inactive

----------
# Tested on: CCRF-CEM leukemia
# Experimental protocol: NCI tumour cell line growth inhibition, 48 h
Parameter: TGI

> print(dat)
                                   compound   reading
1  O=C1OC(c2ccccc2)=N/C1=C\c1ccc(Oc2ccc(Cl)c(Cl)c2)cc1   59.9 µM
2  CN1CCN(Cc2ccc(NC(=O)c3cncc(C#Cc4cnc(N)cc4C#N)c3)cc2C(F)(F)F)CC1   42.7 µM
3  CC(C)OP(=O)(OC(C)C)C1=NN(c2ccc([N+](=O)[O-])cc2)C(P(=O)(OC(C)C)OC(C)C)=NN1c1ccc([N+](=O)[O-])cc1  > 100 µM
4             CCc1ccccc1NC(=O)/C=C/c1ccccc1  > 100 µM
5  Cc1c(OCc2ccccc2)c(=O)ccn1CCc1c[nH]c2ccccc12  > 100 µM
6  C=C1C(=O)O[C@H]2[C@H]1CC/C(COC(=O)NCc1ccc(OC)cc1)=C\CC[C@@]1(C)O[C@@H]21    2.1 µM
7  CC(=O)NC(CCCCN)C(=O)NCc1ccccc1 (configuration not stated)  > 100 µM

----------
# System: OVCAR-4 ovarian
# Experimental protocol: NCI tumour cell line growth inhibition, 48 h
Listing of recorded TGI by entry.
Parameter: TGI

> print(dat)
                                    compound      test.target  parameter    reading
 1  COc1ccc2c(c1)CC[C@@H]1C2CC[C@](C)(C#N)C1CC#N (some centres not stated)  OVCAR-4 ovarian        TGI   > 100 µM
 2  C=C[C@@]1(O)CCCC[C@@H]1CC(Sc1ccccc1)Sc1ccccc1  OVCAR-4 ovarian        TGI    32.9 µM
 3  C[Si](C)(c1ccc(C(=O)O)cc1)c1ccc(C(=O)O)cc1  OVCAR-4 ovarian        TGI   > 100 µM
 4  O=C(N/C(=C\c1ccc(Br)cc1)c1nc2ccccc2[nH]1)c1ccccc1  OVCAR-4 ovarian        TGI    36.5 µM
 5  Oc1c(Cl)cc(Cl)c2ccc(Cn3cc(-c4cc(C(F)(F)F)cc(C(F)(F)F)c4)nn3)nc12  OVCAR-4 ovarian        TGI    2.75 µM
 6  O=c1nc(-c2ccccc2)cc(CC(O)c2ccc(Cl)c(Cl)c2)[nH]1 (configuration not stated)  OVCAR-4 ovarian        TGI   > 100 µM
 7            CCSCN(C)c1nc(N(C)C)nc(N(C)C)n1  OVCAR-4 ovarian        TGI   > 100 µM
 8              N#C/C(=C\c1cccc(O)c1O)C(N)=O  OVCAR-4 ovarian        TGI   > 100 µM
 9  C[Si](C)(C)C(CCCCSc1ccccc1)(Sc1ccccc1)Sc1ccccc1  OVCAR-4 ovarian        TGI   > 100 µM
10    Cn1cccc1-c1cc(-c2ccccc2)[nH]c(=O)c1C#N  OVCAR-4 ovarian        TGI   > 100 µM
11  C=C1[C@@](C)([C@@H]2CCCS2)[C@H]2C(C)=C[C@]1(C)n1c(=O)n(-c3ccccc3)c(=O)n12  OVCAR-4 ovarian        TGI   > 100 µM
12  CN(C(=O)c1ccc2c(c1)sc1c(=O)n(C)c3ccccc3c12)c1ccccc1  OVCAR-4 ovarian        TGI   > 100 µM
13  O=C(/C=C/c1ccc(O)c(O)c1)NCc1c[nH]c2ccccc12  OVCAR-4 ovarian        TGI   > 100 µM
14  COC(=O)CC(C(C(=O)OCc1ccccc1)C(C)O)N1C(=O)OC(c2ccccc2)C1c1ccccc1 (configuration not stated)  OVCAR-4 ovarian        TGI   > 100 µM
15   CCOc1ccc(/C(C=O)=C(\Cl)c2ccc(OC)cc2)cc1  OVCAR-4 ovarian        TGI   > 100 µM
16          Cc1ccc(Sc2ccccc2[N+](=O)[O-])cc1  OVCAR-4 ovarian        TGI   > 100 µM
17  COC(=O)C1=C(CS(=O)c2ccc([N+](=O)[O-])cc2[N+](=O)[O-])C2C=CC1C2 (configuration not stated)  OVCAR-4 ovarian        TGI    67.1 µM
18  [O-][n+]1c(CN2CCCCC2)nc2cccc3c2c1-c1ccccc1-3  OVCAR-4 ovarian        TGI    77.4 µM
19                   N=C(N)SCCC(=O)CCSC(=N)N  OVCAR-4 ovarian        TGI   > 100 µM
20  CN(C)c1ccc(/C=C/C(=O)N[C@@H]2C(=O)N3[C@@H]2SC(C)(C)[C@@H]3C(=O)O)cc1  OVCAR-4 ovarian        TGI   > 100 µM
21       CC(=O)NC1=C(NCCCl)C(=O)c2ccccc2C1=O  OVCAR-4 ovarian        TGI   > 100 µM
22  COC(=O)C12CC(NC(=O)c3csc([C@@H](C[C@H](C(C)C)N(C)C(=O)[C@@H](NC(=O)[C@H]4CCCCN4C)C4CC4)OC(C)=O)n3)(C1)C2  OVCAR-4 ovarian        TGI  > 16.7 µM
23  CC(C)(O)C1CC[C@]2(C)[C@H]3CC[C@@H]4[C@@]5(C)CCCC(C)(C)[C@@H]5CC[C@@]4(C)[C@]3(C)CC[C@@H]12 (some centres not stated)  OVCAR-4 ovarian        TGI   > 100 µM
24  CC1CN(S(=O)(=O)c2oc(-c3ccc(Cl)cc3)nc2C#N)CC(C)O1 (configuration not stated)  OVCAR-4 ovarian        TGI    4.65 µM
25  Cc1ccc2nc(-c3ccc(OCC(=O)N=Nc4c(O)[nH]c5ccccc45)cc3)[nH]c2c1  OVCAR-4 ovarian        TGI    4.09 µM
26  COC(=O)c1cc2c(cc1Cl)SC1=NN(C)S(=O)N1S2(=O)=O (configuration not stated)  OVCAR-4 ovarian        TGI   > 100 µM
27  CSc1nc(NC2OC(COC(C)=O)C(OC(C)=O)C(OC(C)=O)C2OC(C)=O)c(N=C(C)C(C)=O)c(=O)[nH]1 (configuration not stated)  OVCAR-4 ovarian        TGI   > 100 µM
